- Test system: SK-MEL-2 melanoma
- procedure_summary: NCI tumour cell line growth inhibition, 48 h; in the data active = GI50 below about 0.43 µM; inactive = the rest
In this exercise, the only acceptable responses are active, inactive

COc1cc(/C=C/c2cc(/C=C/c3ccc(O)c(OC)c3)n(C(N)=O)n2)ccc1O	active
C1C[OH+]CCNCC[OH+]CC[OH+]CCN1.O.[Cl-].[Pt+4]	inactive
CCCCN1C=CCN(CCCC)C1	inactive
COc1cc(Nc2ncc3c(C)nc(-c4cccc(C(F)(F)F)c4)n3n2)cc(OC)c1OC	inactive
CCOC(=O)C(CC(C)C)NC(=O)C(Cc1ccc(N(CCCl)CCCl)cc1)NC(C)=O (stereo not drawn)	inactive
COc1ccccc1/C=C/C(=O)c1ccc(Nc2nc(Nc3ccc(F)cc3)nc(Nc3ccc(F)cc3)n2)cc1	inactive

Look up the recorded call for "CCOC(=O)c1cc(C(=O)c2cc(OC)cc(OC)c2)n2nc(C)ccc12" in this test.
inactive

# repeat for COc1ccc(-c2cc(C(=O)N3N=C(c4ccc(N)cc4)CC3c3ccc(Cl)cc3)c3ccccc3n2)cc1 (stereo not drawn)
inactive

* * *

- Test system: RXF 393 renal
- procedure_summary: NCI tumour cell line growth inhibition, 48 h
experimental_readout: TGI (µM)
One number for each entry, in µM.

C#CCCOC(=O)CC1=C(C)/C(=C/c2ccc(S(C)=O)cc2)c2ccc(F)cc21 (stereo unspecified)	84.7
NCCCNc1nc2ccccc2c2c(=O)c3cccc(F)c3sc12	2.81
COC(=O)N/N=C(/CC1(O)C(=O)Nc2ccc([N+](=O)[O-])cc21)c1ccccc1 (stereo unspecified)	51.4
Cn1c([N+](=O)[O-])cnc1/C=C1\Oc2ccc(Br)cc2C1=O	1.94
COC(=O)C1=C(C(=O)OC)SC2(S1)C1=C(CCC1)SC(C(=O)OC)=C2C(=O)OC	16.7

Each compound below has a reported value. Please supply its TGI.
1. CCN(Cc1cc(F)cc(F)c1)c1ccc(CO)c(Cl)c1
2. O=[N+]([O-])c1cc([N+](=O)[O-])c(NN=C(c2ccc(O)cc2)c2ccc(O)cc2)cc1Cl
3. Cc1cc(C)nc(NS(=O)(=O)c2ccc(NC(=O)c3cccc4c(Nc5ccc(S(=O)(=O)N=C(N)N)cc5)c5ccccc5nc34)cc2)n1
4. CN(c1ccc(C(=O)O)cc1)c1cc(O/N=[N+](\[O-])N(C)C)c([N+](=O)[O-])cc1[N+](=O)[O-]
5. CCOC(=O)c1cc(C(=O)c2cc(OC)cc(OC)c2)n2nc(C)ccc12

1. 17.5
2. 0.35
3. 52
4. 33.8
5. 3.16

* * *

- Test system: OVCAR-4 ovarian
- procedure_summary: NCI tumour cell line growth inhibition, 48 h
experimental_readout: TGI (µM)
Numbers only, in µM.

COc1cccc2c1C(=O)c1c(O)c3c(c(O)c1C2=O)C[C@@](O)(C(=O)CO)C[C@@H]3OC1CC(N(C)C)C(O)C(C)O1 (stereo not given in full)	0.266

Each molecule below has a reported value. Please supply its TGI.
1. NCCCNc1nc2ccccc2c2c(=O)c3cccc(F)c3sc12
2. O=c1c(Nc2ccccc2)cn(CCOc2ccccc2)c(=O)n1CCOc1ccccc1
3. COC(=O)CCCC(=O)C1=Nc2ccccc2CN(c2ccc(Cl)cc2)N1

[3.58, 54.4, 87.7]

* * *

Consider the following compounds; for each one, report its log10(TGI).
- Tested on: HOP-92 NSCLC
- procedure_summary: NCI tumour cell line growth inhibition, 48 h
Reminder: these figures are log10 of reported TGI, in µM before transformation.

Use the examples below as a reference point.
O=[N+]([O-])c1ccc(NC(=S)N=Nc2c(O)[nH]c3ccccc23)cc1	1.49
CC(=O)O[C@]1(C)CCC2C(C)C(=O)OC2C2C(C)[C@@H](O)CC21 (stereo not given in full)	1.96
O=c1c(Nc2ccccc2)cn(CCOc2ccccc2)c(=O)n1CCOc1ccccc1	1.92
COc1cc(Nc2cc(O)c3c(=O)cc(-c4ccccc4)oc3c2)cc(OC)c1	1.25
CCC(=O)OCC1OC(n2cnc3c(=S)nc(N)[nH]c32)C(OC(=O)CC)C1OC(=O)CC (stereo not given)	1.32
O=[N+]([O-])c1cc([N+](=O)[O-])c(NN=C(c2ccc(O)cc2)c2ccc(O)cc2)cc1Cl	0.39
CCOC(=O)c1c(Sc2ccc([N+](=O)[O-])cc2[N+](=O)[O-])nc2c3ccccc3ccn12	1.62

log10(TGI) for CN(C)c1ccc(C2C(Cl)C(=O)N2NC(=O)c2c(Cl)c(Cl)c(Cl)c(Cl)c2-c2nc3ccccc3[nH]2)cc1 (stereo not given) ?
1.38
